B1: Ankyrin repeat and SAM domain-containing protein 6, residues 774 to 836; numbered along this chain, Q68DC2 (parent)
chain: DEDELTGILKKLSLEKYQPIFEEQEVDMEAFLTLTDGDLKELGIKTDGSRQQILAAISELNAG

Variants of: B1
Assay text: abundance fitness (aPCA) (normalised: wild type 0, dead -1); higher = more abundant; growth selection in yeast, the domain comes from the species named
Setup conditions: Homo sapiens
Each entry below carries its reported abundance fitness.
// return just the number, without any unit appended

Below: 5 variants and their reported abundance fitness.
Seq string	abundance fitness
DEDELTGILKKLSLEKYQPIFEEQEVDMEAFLTLTDGDLKELGIDTDGSRQQILAAISELNAG [K45D]	0.079
DEDELTGILKKLSLEKYQPIFEEQEVDMEAFLTLTDGDLKELGIKTDGSRWQILAAISELNAG [Q51W]	-0.724
DEDELTGILKKLSLEKYQPIFEEQEVDMEAFLTLTDGDLKELGIKTDGSRQQILAAMSELNAG [I57M]	-0.539
DEDELTGILKKLSLEKYQPIFEEQEVDMEAFLTLDDGDLKELGIKTDGSRQQILAAISELNAG [T35D]	0.037
DEDELTGILKKLSLEKYQLIFEEQEVDMEAFLTLTDGDLKELGIKTDGSRQQILAAISELNAG [P19L]	-0.456

Query: Sample DEDELTGILKKLSLEKYQPIFEEQEVDMEAFLTLTDGVLKELGIKTDGSRQQILAAISELNAG [D38V] — what was its abundance fitness?
Result: -1.06

Query: So what does the record say about abundance fitness for DEDELTGILKKLSLEKYQPIFEEGEVDMEAFLTLTDGDLKELGIKTDGSRQQILAAISELNAG [Q24G] ?
Result: -0.128

Query: Would you mind telling me what abundance fitness value was observed for DEDELTGILKKLSLEKYQPIFEEQEVDMEAFLTLTDGDLKELGFKTDGSRQQILAAISELNAG [I44F] ?
Result: -0.144

Query: State the recorded abundance fitness for this entry: DEDELTGILKKLSLEKYQPAFEEQEVDMEAFLTLTDGDLKELGIKTDGSRQQILAAISELNAG [I20A]
Result: -0.111

Query: Look up abundance fitness for this variant: DEDELTYILKKLSLEKYQPIFEEQEVDMEAFLTLTDGDLKELGIKTDGSRQQILAAISELNAG [G7Y]
Result: -0.044

Query: So what's the measured abundance fitness for this one? DEDELTGILKKLSLEKYQPIFEEQEVDMEAILTLTDGDLKELGIKTDGSRQQILAAISELNAG [F31I]
Result: -0.343
